Target: T1, human galanin (mature, processed form) (human, UniProt P22466 33-62, 125I-labelled in the filtration and immunoprecipitation assays; biotinylated in the IGEN assay and in the BIAcore assay of Table 4)
T1 construct: mature; the assays used the mature peptide; also called biotinylated galanin
T1 peptide (looked up): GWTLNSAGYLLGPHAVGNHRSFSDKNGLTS
Assay: BIAcore SPR; biotinylated galanin on a streptavidin chip, MAb flowed
pKd: −log10 of the molar value.
# pKd per entry
Recorded endpoint: pKd

Binder	Readout value
murine monoclonal antibody 2H9 (antibody, mouse IgG1, V domains shown) VH: EIQLQQSEAELVKPGASVRLSCATSGFNIKDYYIHWVKQTTEQGLEWIGRIDPEDGETEYAPKFQGKATIAADTSSNTAYLLLNSLSSEDTAVYYCTRGYASWGQGTTLTVSS VL: DVLMTQTPLSLSVSLGDQASISCRSSQSFVHSDGNTYLEWYLQKSGQSPKLLIYKVSNRFSGVPDRFSGSGSGTDFTLKINRVEAEDLGVYYCFQGSHVPYTFGGGTKLEIKR	9.82
murine monoclonal antibody 5B4 (antibody, mouse IgG2a, V domains shown, purified from ascites; also called hybridoma 5B4C1 (ATCC PTA-5651)) VH: EVQLQQSGAELVRPGALVKLSCKASGFNIEDYYMHWVRQRPEEGLEWIGRIDPENGNTIYDPKFQGKASITADTSSNTAYLQLSSLTSEDTAVYYCVRGYVDWGQGTLVTVSA VL: DVLMTQTPLSLPVSLGDQASISCRSSQSIVHSDGDTYLEWYLQKAGQSPKLLIYKVSNRFSGVPDRFSGSGSGTDFTLKISRVEAEDLGLYYCFQGSHVPYTFGGGTKLEIKR	9.89
